assay: Primary qHTS for inhibitors of nuclear receptor binding SET domain protein 2 (NSD2) in an isogenic RCH-ACV NSD2 p.E1099K mutant (9B) (AID 1645876); details: RCH-ACV (leukaemia line) NSD2 E1099K (9B) viability, CellTiter-Glo, 72 h; series mostly up to 44.9 µM; further: nearly all actives have a fitted effect of over 70% in size
Inconclusive results are not listed. The source made the active and inactive calls. The call rests on the fitted dose curve; in most records, active means well fitted inhibition curve with a large enough effect; inconclusive means small, poorly fitted or top-dose-only effect; inactive means flat fitted curve, though single readings scatter.
Output constraint: value belongs to active, inactive

Worked cases, answers included:
{"columns": ["compound", "class-assignment"],
 "data": [
  ["C1COC(NC(C2CC2)C2CC2)=N1", "inactive"],
  ["S=C(NCc1ccc2c(c1)OCO2)N1CCN(c2ncnc3c2oc2ccccc23)CC1", "active"],
  ["CC(=O)Oc1ccccc1C(=O)O", "inactive"]
]}

Ask: Call for entry COc1ccccc1[C@H](c1cccc2ccccc12)[C@@](C)(C#N)C(=O)N1CCC(c2cccc(C(F)(F)F)c2)CC1 :
Result: inactive

Ask: What call does the record list for CS(=O)(=O)c1ccc(C(=O)Nc2ccc(Cl)c(-c3ccccn3)c2)c(Cl)c1 ?
Result: inactive

Ask: // outcome(item) with item = CC(C)(C)OC(=O)CN(Cc1ccc(Cl)cc1)Cc1ccc([N+](=O)[O-])s1
Result: inactive

Ask: Could you kindly confirm the outcome this assay logged for CC(C)NCC(O)COc1ccc(COCCOC(C)C)cc1 (stereo not drawn) ?
Result: inactive

Ask: Please state the recorded outcome for this compound: CC(C)c1onc(-c2c(Cl)cccc2Cl)c1COc1ccc(/C=C/c2cccc(C(=O)O)c2)c(Cl)c1
Result: inactive

Ask: Write down the call the test reported for this compound. Item: CS(=O)(=O)Oc1ccc2c(NC(N)=O)c(C(=O)c3ccc(Cl)cc3Cl)oc2c1
Result: inactive

Ask: What did this assay record as the result for CC[C@@H](C)[C@H](NC(=O)[C@H](CC1CCCCC1)NC(=O)c1ccno1)C(=O)N1CCC2(CCc3ccccc32)CC1 ?
Result: inactive

Ask: Any idea what this test logged for Nc1nc2ccc(OC(F)(F)F)cc2s1 ?
Result: active

Ask: For c1ccc([C@H]2CN3CCSC3=N2)cc1 , what call appears in the results of this test?
Result: inactive

Ask: Please share the test call associated with Cc1ccc(N(CC2=NCCN2)c2cccc(O)c2)cc1 .
Result: inactive
